Where do these numbers come from? They come from ChEMBL document CHEMBL3785081.

Experiment: Lipophilicity, log D of the compound at pH 7.4
Type: physicochemical
Conditions: buffer
Record form. Attribute: logD. Fill in for each entry.

Record excerpt, results attached:
> print(dat)
                          compoundstructure  experimentalresult
1  C=CC(=O)N1CC[C@@H](COc2nc(Nc3cnn(C)c3)nc3[nH]cc(Cl)c23)C1                2.91
2  C#CCCn1cc(Nc2nc(OC[C@H]3CN(C(=O)C=C)C[C@@H]3OC)c3c(Cl)c[nH]c3n2)cn1                   3
3  C=CC(=O)Nc1cccc(Oc2nc(Nc3cnn(C)c3)nc3[nH]ccc23)c1                 3.2

Your task in this section: give logD for each listed record.
1. C=CC(=O)N1C[C@H](COc2nc(Nc3cnn(C)c3)nc3[nH]cc(Cl)c23)[C@@H](C(F)(F)F)C1
2. C=CC(=O)N1CC[C@@H](COc2nc(Nc3cnn(C)c3)nc3[nH]ccc23)C1
3. C=CC(=O)N1C[C@H](COc2nc(Nc3cnn(C)c3)nc3[nH]ccc23)[C@@H](C(F)(F)F)C1
4. C=CC(=O)N1C[C@H](CO)[C@@H](COc2nc(Nc3cnn(C)c3)nc3[nH]cc(Cl)c23)C1

3
2.1
2.7
2.3

Report logD for each item below.
1. C=CC(=O)N1C[C@@H](COc2nc(Nc3cnn(C)c3)nc3[nH]cc(Cl)c23)[C@H](OC)C1
2. C=CC(=O)N1C[C@H](COc2nc(Nc3cnn(C)c3)nc3[nH]cc(Cl)c23)[C@@H](F)C1

1: 2.4; 2: 2.7

---

Assay: Lipophilicity, log D of the compound at pH 7.4
Type: physicochemical
Conditions: buffer
Label t when logD is at or above 3; otherwise label f.

> print(dat)
                                   compound  category
1  C#CCOc1cc2ncnc(Nc3ccc(F)c(Cl)c3)c2cc1NC(=O)C=C         t

Determine whether this compound has logD no lower than 3: `C=CC(=O)N1C[C@H](COC)[C@@H](COc2nc(Nc3cnn(C)c3)nc3[nH]cc(Cl)c23)C1` f

---

Tested on: Liver microsome
Assay: Intrinsic clearance in human liver microsomes
Format: ADME
Assignment: determine reported CLint for the given compounds.

Below, each entry is followed by its recorded CLint result.
> print(dat)
                          compoundstructure  quantitymeasured  experimentalresult
1  C=CC(=O)N1C[C@H](CO)[C@@H](COc2nc(Nc3cnn(C)c3)nc3[nH]cc(Cl)c23)C1             CLint         13 µL/min/g
2  C=CC(=O)N1C[C@@H](COc2nc(Nc3cnn(C)c3)nc3[nH]cc(Cl)c23)[C@H](OC)C1             CLint         24 µL/min/g
3  C=CC(=O)N1C[C@H](COc2nc(Nc3cnn(C)c3)nc3[nH]cc(Cl)c23)[C@@H](C(F)(F)F)C1             CLint         37 µL/min/g
4  C=CC(=O)N1C[C@H](COc2nc(Nc3cnn(C)c3)nc3[nH]cc(Cl)c23)[C@@H](O)C1             CLint         12 µL/min/g
5  C=CC(=O)Nc1cccc(Oc2nc(Nc3cnn(C)c3)nc3[nH]ccc23)c1             CLint         66 µL/min/g

# batch size: 2; output CLint per entry
1. C=CC(=O)Nc1cccc(Oc2nc(Nc3ccc(N4CCN(C)CC4)cc3)nc3[nH]ccc23)c1
2. C=CC(=O)N1CC[C@@H](COc2nc(Nc3cnn(C)c3)nc3[nH]ccc23)C1

20 µL/min/g
56 µL/min/g

I need CLint for every entry listed below, if you could help.
1. C=CC(=O)N1C[C@H](COc2nc(Nc3cnn(C)c3)nc3[nH]cc(Cl)c23)[C@@H](F)C1
2. C=CC(=O)Nc1cccc(Oc2nc(Nc3ccn(C)n3)nc3[nH]ccc23)c1

1: 28 µL/min/g; 2: 11 µL/min/g
